biological target: Interleukin-1 receptor-associated kinase 4 (Homo sapiens); details: at 0.1 µM;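 further: reported figure is the mean inhibition of IRAK4 activity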
Form field: inhibition (one value per entry).
Give the number; % is assumed, so skip it.

Study these solved cases before continuing.
CS(=O)(=O)CCNCc1ccc(-c2ccc3ncnc(Nc4ccc(OCc5cccc(F)c5)c(C(F)(F)F)c4)c3c2)o1 : 4.38
CS(=O)(=O)CCNCc1nc(-c2ccc3ncnc(Nc4ccc(F)c(Cl)c4)c3c2)cs1 : 0.41
CN1CCC(C(=O)Nc2n[nH]c3nnc(-c4ccccc4)cc23)CC1 : 1.96
CC(C)=Cc1cccc2c1/C(=N/Nc1ccc(S(N)(=O)=O)cc1)C(=O)N2 : -0.76
COC(=O)Nc1nc2cc(Oc3cccc(NC(=O)Nc4cc(C(F)(F)F)ccc4F)c3)ccc2[nH]1 : 3.51

Suppose we examine the compound `CCn1c(-c2nonc2N)nc2ccncc21` ; what inhibition value has been reported?
2.09

Param item: `CN(C)c1cc2c(Nc3ccc4nc(Cc5ccccc5)[nH]c4c3)ncnc2cn1`
2.36

Param item: `CCn1c(-c2nonc2N)nc2cnc(Oc3cccc(NC(=O)c4ccc(OCCN5CCOCC5)cc4)c3)cc21`
3.17

Param item: `Cc1ccc(C(=O)NC2CCCCC2)cc1-c1ccc(C(=O)NCC2CC2)cc1`
-1.27

Param item: `CCn1c(-c2nonc2N)nc2cncc(C(=O)N3CC[C@H](N)C3)c21`
2.88

Param item: `Nc1nc(-c2ccc3c(c2)C(=Cc2cc(Br)c(O)c(Br)c2)C(=O)N3)cs1`
3.08

Param item: `CCCN1CCC=C(c2ccc(Nc3nc(Nc4ccccc4C(N)=O)c4cc[nH]c4n3)c(C)c2)C1`
2.14

---

Target: Non-receptor tyrosine-protein kinase TNK1 (Homo sapiens) (UniProt Q13470);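 further: reported values are mean inhibition figures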
Sequence (whole entry): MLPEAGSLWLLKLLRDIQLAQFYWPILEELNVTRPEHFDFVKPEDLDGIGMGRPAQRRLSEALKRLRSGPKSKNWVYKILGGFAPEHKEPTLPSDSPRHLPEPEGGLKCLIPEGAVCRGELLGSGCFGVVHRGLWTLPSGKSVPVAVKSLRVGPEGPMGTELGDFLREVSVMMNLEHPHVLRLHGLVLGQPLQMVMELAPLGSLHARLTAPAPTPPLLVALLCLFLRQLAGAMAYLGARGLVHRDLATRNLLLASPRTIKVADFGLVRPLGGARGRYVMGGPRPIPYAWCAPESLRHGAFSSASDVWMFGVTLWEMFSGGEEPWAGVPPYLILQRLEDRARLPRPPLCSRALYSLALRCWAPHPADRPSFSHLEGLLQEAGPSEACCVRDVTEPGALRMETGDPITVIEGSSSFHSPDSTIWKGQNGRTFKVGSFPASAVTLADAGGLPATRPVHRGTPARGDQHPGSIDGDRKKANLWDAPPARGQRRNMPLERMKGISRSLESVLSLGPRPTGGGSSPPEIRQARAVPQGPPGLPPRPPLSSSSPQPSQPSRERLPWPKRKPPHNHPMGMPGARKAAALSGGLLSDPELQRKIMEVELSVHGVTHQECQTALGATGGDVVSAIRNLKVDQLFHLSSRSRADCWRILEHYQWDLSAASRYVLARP
Settings: at 0.1 µM
Form field: inhibition (one value per entry).
Give the number; % is assumed, so skip it.

Study these solved cases before continuing.
O=C1Nc2ccc(C(=O)c3ccco3)cc2C1=Cc1cc(Cl)c(O)c(Cl)c1 : 38.9
COc1cc(C=NNc2ncnc3c2cnn3-c2ccccc2)ccc1O : 10.8
COc1cc(C)c(NC(=O)CN(C)C)cc1Nc1nc(Nc2cccc(F)c2C(N)=O)c2cc[nH]c2n1 : 30.8
CCn1c(-c2nonc2N)nc2cncc(C(=O)N3CCNCC3)c21 : 3.89

Attention now shifts to the item below.
Suppose we examine the compound `COc1cc2c(cc1Nc1nc(N3CCc4ccccc43)c3cc[nH]c3n1)N(C(=O)CN(C)C)CC2` ; what inhibition value has been reported?
1.17
